TEST NAME: Clearance in dog hepatocytes at 1 uM measured per million cells by ESI/LC-MS/MS analysis
Format: ADME, cell-based, Canis lupus familiaris, Hepatocyte
RUN CONDITIONS: read-out: CLH

# COMPOUND, hepatocyte CLint at 1 µM
data = [
    ("C[C@@H]1COCCN1c1cc([C@]2(O)C[C@H]3CC[C@@H](C2)O3)c2cnn(-c3cc[nH]n3)c2n1 [CAMONSERTIB]", "< 1 µL/min/1e6 cells"),
]

* * *

TGT: DNA-dependent protein kinase catalytic subunit (Homo sapiens, UniProt P78527)
Sequence (P78527 whole entry): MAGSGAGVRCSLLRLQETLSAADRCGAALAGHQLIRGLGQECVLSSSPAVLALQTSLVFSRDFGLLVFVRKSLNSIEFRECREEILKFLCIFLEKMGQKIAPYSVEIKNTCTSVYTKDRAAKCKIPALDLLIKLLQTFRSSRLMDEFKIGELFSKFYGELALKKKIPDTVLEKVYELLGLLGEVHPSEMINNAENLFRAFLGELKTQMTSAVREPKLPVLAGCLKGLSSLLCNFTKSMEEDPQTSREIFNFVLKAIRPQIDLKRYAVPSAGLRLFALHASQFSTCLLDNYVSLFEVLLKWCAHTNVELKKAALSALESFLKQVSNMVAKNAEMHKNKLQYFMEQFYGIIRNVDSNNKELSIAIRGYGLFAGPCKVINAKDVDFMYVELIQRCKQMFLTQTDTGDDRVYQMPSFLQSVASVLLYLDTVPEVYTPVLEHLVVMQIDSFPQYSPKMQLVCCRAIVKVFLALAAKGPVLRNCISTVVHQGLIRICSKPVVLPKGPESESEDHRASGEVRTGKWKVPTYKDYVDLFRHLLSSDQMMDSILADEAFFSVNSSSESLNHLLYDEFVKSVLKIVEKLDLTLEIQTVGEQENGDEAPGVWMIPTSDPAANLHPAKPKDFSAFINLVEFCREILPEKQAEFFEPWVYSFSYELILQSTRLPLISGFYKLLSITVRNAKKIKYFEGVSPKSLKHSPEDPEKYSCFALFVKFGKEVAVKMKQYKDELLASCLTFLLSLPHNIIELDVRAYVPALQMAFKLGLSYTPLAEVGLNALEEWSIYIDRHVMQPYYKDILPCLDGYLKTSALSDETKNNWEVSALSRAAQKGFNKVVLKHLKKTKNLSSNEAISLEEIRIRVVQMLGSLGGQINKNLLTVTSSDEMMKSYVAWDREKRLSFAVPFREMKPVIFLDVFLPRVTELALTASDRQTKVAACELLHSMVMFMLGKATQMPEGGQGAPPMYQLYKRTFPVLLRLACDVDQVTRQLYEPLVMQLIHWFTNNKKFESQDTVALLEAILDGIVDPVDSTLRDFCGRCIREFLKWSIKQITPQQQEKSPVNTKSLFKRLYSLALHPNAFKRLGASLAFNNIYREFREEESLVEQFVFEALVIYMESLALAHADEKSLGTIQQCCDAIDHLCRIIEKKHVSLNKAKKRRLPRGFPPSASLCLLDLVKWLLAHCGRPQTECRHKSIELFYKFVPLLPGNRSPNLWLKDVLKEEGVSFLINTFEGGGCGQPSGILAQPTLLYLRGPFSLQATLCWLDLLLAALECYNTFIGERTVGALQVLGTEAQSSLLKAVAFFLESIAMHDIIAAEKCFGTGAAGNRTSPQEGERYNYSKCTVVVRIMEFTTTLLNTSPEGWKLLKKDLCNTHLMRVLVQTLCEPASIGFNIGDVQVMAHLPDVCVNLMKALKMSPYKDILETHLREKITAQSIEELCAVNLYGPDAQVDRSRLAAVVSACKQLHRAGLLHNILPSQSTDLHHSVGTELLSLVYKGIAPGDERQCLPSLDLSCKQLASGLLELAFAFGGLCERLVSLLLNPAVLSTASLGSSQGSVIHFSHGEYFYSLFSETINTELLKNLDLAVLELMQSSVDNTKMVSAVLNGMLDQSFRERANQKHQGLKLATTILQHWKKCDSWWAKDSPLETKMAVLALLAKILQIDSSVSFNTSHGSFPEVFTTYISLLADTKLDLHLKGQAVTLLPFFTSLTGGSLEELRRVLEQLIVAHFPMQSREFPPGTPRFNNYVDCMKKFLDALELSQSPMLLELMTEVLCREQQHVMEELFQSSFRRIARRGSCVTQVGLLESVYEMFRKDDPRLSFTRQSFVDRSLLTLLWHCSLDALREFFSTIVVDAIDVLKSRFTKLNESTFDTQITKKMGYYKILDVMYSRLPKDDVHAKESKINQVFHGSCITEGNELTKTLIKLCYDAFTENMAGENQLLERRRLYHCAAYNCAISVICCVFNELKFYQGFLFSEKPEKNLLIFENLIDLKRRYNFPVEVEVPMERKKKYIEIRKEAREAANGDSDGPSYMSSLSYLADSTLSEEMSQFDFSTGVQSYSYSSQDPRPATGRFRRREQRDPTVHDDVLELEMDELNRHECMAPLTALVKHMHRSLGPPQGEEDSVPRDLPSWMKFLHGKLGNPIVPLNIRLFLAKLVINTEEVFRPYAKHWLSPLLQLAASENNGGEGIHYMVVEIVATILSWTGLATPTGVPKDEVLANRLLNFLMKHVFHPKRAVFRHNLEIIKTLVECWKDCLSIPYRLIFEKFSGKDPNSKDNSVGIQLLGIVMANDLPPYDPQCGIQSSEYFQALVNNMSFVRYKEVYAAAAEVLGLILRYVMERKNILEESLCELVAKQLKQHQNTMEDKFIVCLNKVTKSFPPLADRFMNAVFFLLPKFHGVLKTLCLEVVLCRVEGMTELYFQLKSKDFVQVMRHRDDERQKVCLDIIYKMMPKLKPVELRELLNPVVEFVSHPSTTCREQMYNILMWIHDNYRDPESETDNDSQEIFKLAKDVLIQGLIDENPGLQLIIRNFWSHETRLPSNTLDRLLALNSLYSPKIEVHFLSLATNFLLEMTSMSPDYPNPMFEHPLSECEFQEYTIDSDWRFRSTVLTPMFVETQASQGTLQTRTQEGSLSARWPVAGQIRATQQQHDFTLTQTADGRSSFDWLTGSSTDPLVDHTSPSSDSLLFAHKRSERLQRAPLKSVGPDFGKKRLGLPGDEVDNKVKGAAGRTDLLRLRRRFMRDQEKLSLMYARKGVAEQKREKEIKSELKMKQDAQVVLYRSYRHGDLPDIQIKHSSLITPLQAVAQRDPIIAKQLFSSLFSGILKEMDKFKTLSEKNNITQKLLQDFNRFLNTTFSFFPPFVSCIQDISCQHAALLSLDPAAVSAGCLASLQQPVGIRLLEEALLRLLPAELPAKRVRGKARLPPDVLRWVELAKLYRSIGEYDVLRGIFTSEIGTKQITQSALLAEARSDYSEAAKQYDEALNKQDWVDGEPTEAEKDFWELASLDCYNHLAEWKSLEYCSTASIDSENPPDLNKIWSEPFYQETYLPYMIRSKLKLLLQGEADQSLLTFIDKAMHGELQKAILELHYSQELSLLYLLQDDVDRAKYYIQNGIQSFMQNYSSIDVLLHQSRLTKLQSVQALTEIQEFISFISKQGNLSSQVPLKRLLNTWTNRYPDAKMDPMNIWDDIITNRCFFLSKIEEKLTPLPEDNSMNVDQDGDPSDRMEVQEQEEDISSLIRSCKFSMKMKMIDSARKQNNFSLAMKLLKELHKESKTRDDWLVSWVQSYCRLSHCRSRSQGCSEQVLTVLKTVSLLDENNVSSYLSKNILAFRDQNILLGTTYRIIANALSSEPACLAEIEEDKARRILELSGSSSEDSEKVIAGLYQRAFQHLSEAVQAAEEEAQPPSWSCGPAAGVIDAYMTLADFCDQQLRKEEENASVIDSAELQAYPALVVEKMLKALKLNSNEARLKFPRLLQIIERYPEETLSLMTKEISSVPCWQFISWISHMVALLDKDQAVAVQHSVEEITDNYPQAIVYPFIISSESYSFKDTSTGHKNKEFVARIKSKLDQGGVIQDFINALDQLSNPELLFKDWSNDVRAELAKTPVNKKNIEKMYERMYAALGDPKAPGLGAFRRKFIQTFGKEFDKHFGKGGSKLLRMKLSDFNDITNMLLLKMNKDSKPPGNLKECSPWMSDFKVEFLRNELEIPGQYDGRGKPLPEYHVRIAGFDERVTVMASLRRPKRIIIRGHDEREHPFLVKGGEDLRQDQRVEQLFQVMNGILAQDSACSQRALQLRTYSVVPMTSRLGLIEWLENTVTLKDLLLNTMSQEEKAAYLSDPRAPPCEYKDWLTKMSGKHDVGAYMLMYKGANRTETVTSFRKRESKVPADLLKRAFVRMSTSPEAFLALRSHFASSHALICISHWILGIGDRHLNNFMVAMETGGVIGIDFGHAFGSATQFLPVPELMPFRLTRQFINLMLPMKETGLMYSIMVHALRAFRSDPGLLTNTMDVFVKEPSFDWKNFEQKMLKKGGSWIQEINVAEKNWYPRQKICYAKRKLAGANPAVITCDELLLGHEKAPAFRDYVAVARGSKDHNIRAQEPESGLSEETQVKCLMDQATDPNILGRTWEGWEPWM
TEST NAME: Inhibition of human full length recombinant DNA-PK using GST-c-Myc-p53 as substrate measured after 30 mins in presence of Mg/ATP mix by ELISA

# MOLECULE, IC50
rows = [
    ("CNCc1ccc(-c2cc(-c3nc(-c4ccc(S(=O)(=O)C(C)C)cc4)cnc3N)on2)cc1 [BERZOSERTIB]", "3.6 µM"),
]

* * *

TGT: Serine-protein kinase ATM (Homo sapiens)
TEST NAME: Inhibition of human full length recombinant ATM using GST-c-Myc-p53 as substrate measured after 30 mins in presence of Mg/ATP mix by ELISA
pIC50: −log10 of the molar value.

# COMPOUND STRING, TGT, pIC50
data = [
    ("CNCc1ccc(-c2cc(-c3nc(-c4ccc(S(=O)(=O)C(C)C)cc4)cnc3N)on2)cc1", "Serine-protein kinase ATM (Homo sapiens)", 7.07),
]

* * *

TEST NAME: Oral bioavailability in Sprague-Dawley rat at 20 mg/kg formulated as suspension in 0.5% methocel and 0.02% SLS measured for 24 hrs by reverse phase liquid chromatography coupled to mass spectrometry
Type: ADME, organism-based
RUN CONDITIONS: in vivo

# COMPOUND, U, bioavailability
data = [
    ("C[C@@H]1COCCN1c1cc([C@]2(O)C[C@H]3CC[C@@H](C2)O3)c2cnn(-c3cc[nH]n3)c2n1 [CAMONSERTIB]", "%", 45),
]

* * *

Here, each record is paired with measured microsomal CLint at 1 µM data.
TEST NAME: Clearance in human liver microsomes at 1 uM in presence of NADPH by ESI/LC-MS/MS analysis
Format: ADME, Microsome
RUN CONDITIONS: read-out: CLH

# MOLECULE, microsomal CLint at 1 µM
rows = [
    ("C[C@@H]1COCCN1c1cc(-c2ccccc2C(N)=O)c2cnn(-c3ccn[nH]3)c2n1", "< 11.6 µL/min/mg"),
    ("C[C@@H]1COCCN1c1cc(I)c2cnn(-c3ccn[nH]3)c2n1", "23 µL/min/mg"),
    ("C[C@@H]1COCCN1c1cc([C@]2(O)C[C@H]3CC[C@@H](C2)O3)c2cnn(-c3cc[nH]n3)c2n1 [CAMONSERTIB]", "< 11.6 µL/min/mg"),
    ("C[C@@H]1COCCN1c1cc(C2(S(C)(=O)=O)CC2)c2ccn(-c3cc[nH]n3)c2n1", "< 11.8 µL/min/mg"),
    ("C[C@@H]1COCCN1c1cc(C(C)(C)C#N)c2cnn(-c3cc[nH]n3)c2n1", "< 11.6 µL/min/mg"),
    ("C[C@@H]1COCCN1c1cc(C2(O)CCC(F)(F)CC2)c2cnn(-c3cc[nH]n3)c2n1", "< 11.6 µL/min/mg"),
]
